Tested on: Plasmodium falciparum
EXPERIMENTAL_DETAILS: Antiplasmodial activity against multidrug-resistant Plasmodium falciparum W2 infected in human erythrocytes
Type: functional, organism-based
REPORTED_METRIC: EC50

Task: Suppose we examine the molecule CCCCN(CCCC)CC(O)c1cc(Cl)cc2c1-c1ccc(Cl)cc1/C2=C/c1ccc(Cl)cc1 (stereo unspecified) ; what EC50 value has been reported?
Result: 0.45 nM

* * *

Would you kindly list bioavailability for each of these compounds?
EXPERIMENTAL_DETAILS: Oral bioavailability in mouse
Type: ADME, organism-based
EXPERIMENTAL_CONDITIONS: in vivo

{"columns": ["COMPOUND", "REPORTED_METRIC", "READING"],
 "data": [
  ["CN1CCN(C2CCN(C(=O)CC3CCC4(CC3)OOC3(OO4)C4CC5CC(C4)CC3C5)CC2)CC1.Cc1ccc(S(=O)(=O)O)cc1 (configuration not stated)", "bioavailability", "42%"]
]}

Task: Give its bioavailability value. Item: Cc1c(CCO)sc[n+]1CCCCCCCCCCCC[n+]1csc(CCO)c1C.[I-].[I-]
Result: 2%
